Molecular target: T1, TNFR1 (Homo sapiens, UniProt P19438)
T1 chain: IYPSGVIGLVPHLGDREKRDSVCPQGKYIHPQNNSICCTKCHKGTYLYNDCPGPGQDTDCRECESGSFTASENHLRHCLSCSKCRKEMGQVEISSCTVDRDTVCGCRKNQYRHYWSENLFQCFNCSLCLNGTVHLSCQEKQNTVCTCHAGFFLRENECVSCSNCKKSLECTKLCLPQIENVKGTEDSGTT
Test: yeast display SC50
Returns: string. Value is Criterion met if measured apparent Kd (screen) is below 0.8 nM, and Criterion not met if it is greater than or equal to it.

| BINDER | ASSIGNED_CATEGORY |
| --- | --- |
| K30M (designed binder) MTLQELLREEALRRAEAEAFRYALELLAEMFPEQKEYLLDLAEEIESQIRSLSGVDVEDVRKFLDKEWAWVKELLAEHPAELAEVEAARAARLAELRAEVEAKVAA | Criterion met |
| F63D (designed binder) MTLQELLREEALRRAEAEAFRYALELLAEKFPEQKEYLLDLAEEIESQIRSLSGVDVEDVRKDLDKEWAWVKELLAEHPAELAEVEAARAARLAELRAEVEAKVAA | Criterion not met |
| L41K (designed binder) MTLQELLREEALRRAEAEAFRYALELLAEKFPEQKEYLLDKAEEIESQIRSLSGVDVEDVRKFLDKEWAWVKELLAEHPAELAEVEAARAARLAELRAEVEAKVAA | Criterion not met |
| E81M (designed binder) MTLQELLREEALRRAEAEAFRYALELLAEKFPEQKEYLLDLAEEIESQIRSLSGVDVEDVRKFLDKEWAWVKELLAEHPAMLAEVEAARAARLAELRAEVEAKVAA | Criterion met |
| R89N (designed binder) MTLQELLREEALRRAEAEAFRYALELLAEKFPEQKEYLLDLAEEIESQIRSLSGVDVEDVRKFLDKEWAWVKELLAEHPAELAEVEAANAARLAELRAEVEAKVAA | Criterion not met |
| R92A (designed binder) MTLQELLREEALRRAEAEAFRYALELLAEKFPEQKEYLLDLAEEIESQIRSLSGVDVEDVRKFLDKEWAWVKELLAEHPAELAEVEAARAAALAELRAEVEAKVAA | Criterion not met |
| D59N (designed binder) MTLQELLREEALRRAEAEAFRYALELLAEKFPEQKEYLLDLAEEIESQIRSLSGVDVENVRKFLDKEWAWVKELLAEHPAELAEVEAARAARLAELRAEVEAKVAA | Criterion met |

All figures here come from paper PMC12416549.
